experiment: PK of compound of Formula (Ia) after single subcutaneous dose of solution formulations in Wistar Han rats; assay type: in vivo; conditions: male, Wistar Han, rat, plasma, sc, 50 mg/kg, 1.00 h; individual rats; SC 50 mg/kg; solution R, 400 mg/mL

# structure, concentration at 1 h, nM
records = [
    ("CC(C)(C#Cc1ccc(-c2ccc(Cl)c3c(NS(C)(=O)=O)nn(CC(F)(F)F)c23)c([C@H](Cc2cc(F)cc(F)c2)NC(=O)Cn2nc(C(F)(F)F)c3c2C(F)(F)[C@@H]2C[C@H]32)n1)S(C)(=O)=O", 67.6),
]

* * *

test: PK of compound of Formula (Ia) after single subcutaneous dose of solution formulations in Wistar Han rats; type: in vivo; details: male, Wistar Han, rat, plasma, sc, 50 mg/kg, mean ± SD, n = 5 rats; SC 50 mg/kg; solution T, 400 mg/mL; read-out: AUC0-24 h
value-type: AUC(0-t) (µM·h)

# structure, measured-result
records = [
    ("CC(C)(C#Cc1ccc(-c2ccc(Cl)c3c(NS(C)(=O)=O)nn(CC(F)(F)F)c23)c([C@H](Cc2cc(F)cc(F)c2)NC(=O)Cn2nc(C(F)(F)F)c3c2C(F)(F)[C@@H]2C[C@H]32)n1)S(C)(=O)=O", 5.49),
]

* * *

assay: PK of compound of Formula (Ia) after single subcutaneous dose of solution formulations in Wistar Han rats; format: in vivo; conditions: male, Wistar Han, rat, plasma, sc, 50 mg/kg, 3024 h; individual rats; SC 50 mg/kg; solution V, 300 mg/mL

# structure, concentration at 3024 h (nM)
records = [
    ("CC(C)(C#Cc1ccc(-c2ccc(Cl)c3c(NS(C)(=O)=O)nn(CC(F)(F)F)c23)c([C@H](Cc2cc(F)cc(F)c2)NC(=O)Cn2nc(C(F)(F)F)c3c2C(F)(F)[C@@H]2C[C@H]32)n1)S(C)(=O)=O", 81.4),
]

* * *

Assay: PK of compound of Formula (Ia) after single subcutaneous dose of solution formulations in beagle dogs
Assay type: in vivo
Conditions: male, beagle, dog, plasma, sc, 12 mg/kg, beagle dogs, SC 12 mg/kg, 400 mg/mL solution AA (6.25% poloxamer 188), 2016 h, Mean n = 3
Protocol: Formulations containing the compound of Formula (Ia), or a pharmaceutically acceptable salt thereof, were prepared as solutions and optionally administered subcutaneously or intramuscularly to rats, rabbits, and/or dogs. A solution of about 400 mg/mL of the compound of Formula (Ia) having 17.00 w/w % water, 36.40 w/w % PEG 300, 35.20 w/w % of a sodium salt of a compound of Formula (Ia), 5.00 w/w % ethanol, and 6.40 w/w % poloxamer 188 was prepared. […]

# structure, unit-tag, concentration at 2016 h
records = [
    ("CC(C)(C#Cc1ccc(-c2ccc(Cl)c3c(NS(C)(=O)=O)nn(CC(F)(F)F)c23)c([C@H](Cc2cc(F)cc(F)c2)NC(=O)Cn2nc(C(F)(F)F)c3c2C(F)(F)[C@@H]2C[C@H]32)n1)S(C)(=O)=O", "µM", 0.0154),
]

* * *

experiment: PK of compound of Formula (Ia) after single subcutaneous dose of solution formulations in Wistar Han rats; assay type: in vivo; details: male, Wistar Han, rat, plasma, sc, 50 mg/kg, 840 h; mean, n = 3 rats; SC 50 mg/kg; solution S, 500 mg/mL
value-type: concentration at 840 h

# structure, value-type, measured-result
data = [
    ("CC(C)(C#Cc1ccc(-c2ccc(Cl)c3c(NS(C)(=O)=O)nn(CC(F)(F)F)c23)c([C@H](Cc2cc(F)cc(F)c2)NC(=O)Cn2nc(C(F)(F)F)c3c2C(F)(F)[C@@H]2C[C@H]32)n1)S(C)(=O)=O", "concentration at 840 h", "300 nM"),
]

* * *

test: PK of compound of Formula (Ia) after single subcutaneous dose of solution formulations in Wistar Han rats; format: in vivo; details: male, Wistar Han, rat, plasma, sc, 50 mg/kg, mean ± SD, n = 5 rats; SC 50 mg/kg; solution U, 500 mg/mL; read-out: AUC0-2352 h

# molecule, AUC(0-t)
records = [
    ("CC(C)(C#Cc1ccc(-c2ccc(Cl)c3c(NS(C)(=O)=O)nn(CC(F)(F)F)c23)c([C@H](Cc2cc(F)cc(F)c2)NC(=O)Cn2nc(C(F)(F)F)c3c2C(F)(F)[C@@H]2C[C@H]32)n1)S(C)(=O)=O [compound of Formula (Ia)]", "610 µM·h"),
]

* * *

Experiment: PK of compound of Formula (Ia) after single subcutaneous dose of solution formulations in Wistar Han rats
Assay type: in vivo
Conditions: male, Wistar Han, rat, plasma, sc, 50 mg/kg, 3.00 h; mean, n = 3 rats; SC 50 mg/kg; solution S, 500 mg/mL
Description: Formulations containing the compound of Formula (Ia), or a pharmaceutically acceptable salt thereof, were prepared as solutions and optionally administered subcutaneously or intramuscularly to rats, rabbits, and/or dogs. A solution of about 400 mg/mL of the compound of Formula (Ia) having 19.14 w/w % water, 40.66 w/w % PEG 300, 35.20 w/w % of a sodium salt of a compound of Formula (Ia), and 5.00% ethanol was prepared. […]

# structure, concentration at 3 h, nM
data = [
    ("CC(C)(C#Cc1ccc(-c2ccc(Cl)c3c(NS(C)(=O)=O)nn(CC(F)(F)F)c23)c([C@H](Cc2cc(F)cc(F)c2)NC(=O)Cn2nc(C(F)(F)F)c3c2C(F)(F)[C@@H]2C[C@H]32)n1)S(C)(=O)=O", 92.8),
]

* * *

assay: PK of compound of Formula (Ia) after single subcutaneous dose of solution formulations in beagle dogs; format: in vivo; conditions: male, beagle, dog, plasma, sc, 12 mg/kg, male beagle dogs, single SC 12 mg/kg, 400 mg/mL solution Y (water, PEG 300), mean ± SD, n = 3; read-out: AUC0-672 h

# structure, unit-tag, AUC(0-t)
data = [
    ("CC(C)(C#Cc1ccc(-c2ccc(Cl)c3c(NS(C)(=O)=O)nn(CC(F)(F)F)c23)c([C@H](Cc2cc(F)cc(F)c2)NC(=O)Cn2nc(C(F)(F)F)c3c2C(F)(F)[C@@H]2C[C@H]32)n1)S(C)(=O)=O", "µM·h", 100),
]

* * *

test: PK of compound of Formula (Ia) after single subcutaneous dose of solution formulations in Wistar Han rats; format: in vivo; conditions: male, Wistar Han, rat, plasma, sc, 50 mg/kg, male Wistar Han rats, single SC 50 mg/kg, 400 mg/mL solution AA (6.25% poloxamer 188), mean ± SD, n = 4; read-out: AUC0-3024 h
value-type: AUC(0-t) (µM·h)

# structure, value-type, unit-tag, measured-result
data = [
    ("CC(C)(C#Cc1ccc(-c2ccc(Cl)c3c(NS(C)(=O)=O)nn(CC(F)(F)F)c23)c([C@H](Cc2cc(F)cc(F)c2)NC(=O)Cn2nc(C(F)(F)F)c3c2C(F)(F)[C@@H]2C[C@H]32)n1)S(C)(=O)=O", "AUC(0-t)", "µM·h", 240),
]

* * *

test: PK of compound of Formula (Ia) after single subcutaneous dose of solution formulations in beagle dogs; type: in vivo; conditions: male, beagle, dog, plasma, sc, 6 mg/kg, 96.0 h; mean, n = 3 dogs; SC 6 mg/kg; solution V, 300 mg/mL
value-type: concentration at 96 h (µM)

# compound, measured-result
measured = [
    ("CC(C)(C#Cc1ccc(-c2ccc(Cl)c3c(NS(C)(=O)=O)nn(CC(F)(F)F)c23)c([C@H](Cc2cc(F)cc(F)c2)NC(=O)Cn2nc(C(F)(F)F)c3c2C(F)(F)[C@@H]2C[C@H]32)n1)S(C)(=O)=O [compound of Formula (Ia)]", 0.0326),
]

* * *

assay: PK of compound of Formula (Ia) after single subcutaneous dose of solution formulations in Wistar Han rats; format: in vivo; conditions: male, Wistar Han, rat, plasma, sc, 50 mg/kg, mean ± SD, n = 3 rats; SC 50 mg/kg; solution V, 300 mg/mL; read-out: AUC0-3696 h
value-type: AUC(0-t)

# compound, measured-result
rows = [
    ("CC(C)(C#Cc1ccc(-c2ccc(Cl)c3c(NS(C)(=O)=O)nn(CC(F)(F)F)c23)c([C@H](Cc2cc(F)cc(F)c2)NC(=O)Cn2nc(C(F)(F)F)c3c2C(F)(F)[C@@H]2C[C@H]32)n1)S(C)(=O)=O [compound of Formula (Ia)]", "700 µM·h"),
]

* * *

assay: PK of compound of Formula (Ia) after single subcutaneous dose of solution formulations in Wistar Han rats; format: in vivo; conditions: male, Wistar Han, rat, plasma, sc, 50 mg/kg, 48.0 h; individual rats; SC 50 mg/kg; solution S, 500 mg/mL

# structure, concentration at 48 h
rows = [
    ("CC(C)(C#Cc1ccc(-c2ccc(Cl)c3c(NS(C)(=O)=O)nn(CC(F)(F)F)c23)c([C@H](Cc2cc(F)cc(F)c2)NC(=O)Cn2nc(C(F)(F)F)c3c2C(F)(F)[C@@H]2C[C@H]32)n1)S(C)(=O)=O", "92.6 nM"),
]
